Please provide measured chromatographic logP for the entries that follow.
Settings: pH 2.7, LogP, HPLC on reversed phase columns, pH 2.7, 0.1% formic acid in water / acetonitrile gradient

Example entries begin here.
compound: CCCCCC(=O)Nc1cccc(CON=C(c2cccc(C)c2)c2nc(=O)on2C)n1 [Example 59]
chromatographic logP: 3.58
//
compound: Cn1oc(=O)nc1C(=NOCc1cccc(NC(=O)CCC2CCCC2)n1)c1ccccc1 [Example 145]
chromatographic logP: 3.72
//
compound: Cc1ccc(C(=O)Nc2cccc(CON=C(c3cccc(F)c3)c3nc(=O)o[nH]3)n2)cc1 [Example 77]
chromatographic logP: 3.33
//
compound: Cn1oc(=O)nc1C(=NOCc1cccc(NC(=O)c2ccccc2)n1)c1ccccc1 [Example 160]
chromatographic logP: 2.92
//
compound: Cn1oc(=O)nc1C(=NOCc1cccc(N)n1)c1cccc(F)c1F [Example 192]
chromatographic logP: 0.96

Hello, I would appreciate it if you could give chromatographic logP for each entry below.
1. C#CCC(C)OC(=O)Nc1cccc(CON=C(c2cccc(OC)c2)c2nc(=O)on2C)n1 (centres unmarked) [Example 94]
2. COc1cccc(C(=NOCc2cccc(NC(=O)c3ccc(F)cc3)n2)c2nc(=O)o[nH]2)c1 [Example 62]
3. COc1cccc(C(=NOCc2cccc(NC(=O)OC(C)(C)C)n2)c2nc(=O)on2C)c1 [Example 22]

3.02
3.09
3.39

###

So I've got a bunch of compounds here, and I need their chromatographic logP values.
Conditions: pH 2.7, LogP, HPLC on reversed phase columns, pH 2.7, 0.1% formic acid in water / acetonitrile gradient
Answers are plain numbers.

smilesInput: CC#CCOC(=O)Nc1cccc(CON=C(c2cccc(C)c2)c2nc(=O)on2C)n1
readoutValue: 3.13

Provide each entry's chromatographic logP from the list below.
1. Cn1oc(=O)nc1C(=NOCc1cccc(NC(=O)C2CCCC2)n1)c1ccccc1
2. COCCn1oc(=O)nc1C(=NOCc1cccc(NC(=O)OC(C)(C)C)n1)c1ccccc1

1: 2.98; 2: 3.61

###

Conditions: pH 2.7, LogP, HPLC on reversed phase columns, pH 2.7, 0.1% formic acid in water / acetonitrile gradient
assayEndpoint: chromatographic logP

Worked cases, answers included:
smilesInput: COc1cccc(C(=NOCc2cccc(NC(=O)c3ccccc3)n2)c2nc(=O)o[nH]2)c1
chromatographic logP: 2.96
//
smilesInput: CCCCOC(=O)Nc1cccc(CON=C(c2cccc(F)c2)c2nc(=O)o[nH]2)n1
chromatographic logP: 3.48
//
smilesInput: Cn1oc(=O)nc1C(=NOCc1cccc(NC(=O)OCC2CC2)n1)c1ccccc1
chromatographic logP: 3.04

Moving on to another molecule below.
# chromatographic logP (molecule: "CCCCOC(=S)Nc1cccc(CON=C(c2ccccc2)c2nc(=O)on2C)n1" ) is 3.89

###

Settings: pH 2.7, LogP, HPLC on reversed phase columns, pH 2.7, 0.1% formic acid in water / acetonitrile gradient
Classify: Criterion met when chromatographic logP is strictly less than 4; Criterion not met when chromatographic logP is not.

Examples from the recorded data:
molecule: Cn1oc(=O)nc1C(=NOCc1cccc(NC(=O)OCCCC2CCCCC2)n1)c1ccccc1
groupLabel: Criterion not met
//
molecule: Cc1cccc(C(=NOCc2cccc(NC(=O)Cc3ccccc3)n2)c2nc(=O)on2C)c1
groupLabel: Criterion met
//
molecule: CC#CCC(C)OC(=O)Nc1cccc(CON=C(c2ccccc2)c2nc(=O)on2C)n1 (stereo not shown)
groupLabel: Criterion met
//
molecule: Cc1ccc(C(=O)Nc2cccc(CON=C(c3cccc(C)c3)c3nc(=O)on3C)n2)cc1
groupLabel: Criterion met
//
molecule: COc1cccc(C(=NOCc2cccc(NC(=O)OCc3ccccc3)n2)c2nc(=O)on2C)c1
groupLabel: Criterion met
//
molecule: CC(C)CCOC(=O)Nc1cccc(CON=C(c2cccc(F)c2)c2nc(=O)o[nH]2)n1
groupLabel: Criterion met
//
molecule: COc1cccc(C(=NOCc2cccc(NC(=O)Cc3cccc(F)c3)n2)c2nc(=O)on2C)c1
groupLabel: Criterion met
//
molecule: C#CCC(C)OC(=O)Nc1cccc(CON=C(c2cccc(C)c2)c2nc(=O)on2C)n1 (stereo not shown)
groupLabel: Criterion met

Consider the molecule "O=C(COc1ccccc1)Nc1cccc(CON=C(c2cccc(F)c2)c2nc(=O)o[nH]2)n1" . Is its chromatographic logP strictly less than 4?
Criterion met

Hi there! Is chromatographic logP for "Cn1oc(=O)nc1C(=NOCc1cccc(NC(=O)OCCC2CCCCC2)n1)c1ccccc1" below 4, do you know?
Criterion not met

For "Cn1oc(=O)nc1C(=NOCc1cccc(NC(=O)OCc2ccccc2Cl)n1)c1ccccc1" , is the recorded chromatographic logP below the cut-off of 4?
Criterion met

Strictly below 4 in chromatographic logP? "Cc1cccc(C(=NOCc2cccc(NC(=O)OC(C)(C)C)n2)c2nc(=O)on2C)c1"
Criterion met

Just wondering, is chromatographic logP of "C=CCCCCOC(=O)Nc1cccc(CON=C(c2ccccc2)c2nc(=O)on2C)n1" below 4?
Criterion met
